biological target: Thymidylate synthase (Homo sapiens); test: Inhibition of human thymidylate synthase expressed in Escherichia coli incubated for 1 hr by spectrophotometry
Sequence (P04818 whole entry): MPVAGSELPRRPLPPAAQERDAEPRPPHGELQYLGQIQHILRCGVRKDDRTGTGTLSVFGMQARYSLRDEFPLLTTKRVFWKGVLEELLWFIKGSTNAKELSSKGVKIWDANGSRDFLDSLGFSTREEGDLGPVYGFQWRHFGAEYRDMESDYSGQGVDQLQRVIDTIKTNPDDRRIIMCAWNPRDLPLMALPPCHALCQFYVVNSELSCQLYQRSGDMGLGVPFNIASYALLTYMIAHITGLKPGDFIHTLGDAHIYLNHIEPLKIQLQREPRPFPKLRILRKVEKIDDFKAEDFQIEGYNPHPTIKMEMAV

- CPD SMILES: "CCCCCn1c(=O)c(C(=O)Nc2ccc(N)cc2)c(O)c2ccccc21"
  MEASURE UNIT: "µM"
  IC50: 71
